Tested on: P. falciparum clinical isolates from Tororo and Busia Districts of Uganda
Assay: Ex vivo 72-hour SYBR Green assay, Ugandan clinical isolates
Format: cell-based, Plasmodium falciparum
Conditions: Plasmodium falciparum, read-out: Geometric mean EC50, Ugandan isolates (Fig. 3B)
pEC50: −log10 of the molar value.

Molecule: CCc1nc(N)nc(N)c1-c1ccc(Cl)cc1 [Pyrimethamine, reference compound]
pEC50: 4.38

----------
System: P. falciparum stage V gametocytes (female gamete formation)
Assay: Female gamete formation inhibition assay
Format: cell-based, Plasmodium falciparum
Details: Plasmodium falciparum; 48 hours exposure

Record Smiles: CC(C)c1n[nH]c2c(=O)[nH]c(Cc3ccc(F)cc3F)nc12
IC50 / nM: 273

----------
Test system: P. falciparum Dd2-B2 lines selected under drug pressure
Assay: 72-hour flow cytometry EC50 assay, lines selected under drug pressure
Format: cell-based, Plasmodium falciparum
Conditions: read-out: EC50, line selected with the same NPD compound, Well 1
pEC50: −log10 of the molar value.
Each entry below carries its recorded pEC50.
Endpoint: pEC50

Record Smiles: CC(C)c1n[nH]c2c(=O)[nH]c(Cc3ccccc3Cl)nc12
Target Entity: P. falciparum Dd2-B2 lines selected under drug pressure
Endpoint: pEC50
Result: 5.59
--
Record Smiles: CC(C)c1n[nH]c2c(=O)[nH]c(C3CCCCC3)nc12
Target Entity: P. falciparum Dd2-B2 lines selected under drug pressure
Endpoint: pEC50
Result: 5.58

----------
System: P. falciparum NF54-HGL stage V gametocytes fed to A. stephensi mosquitoes
Assay: SMFA dose response (luminescence)
Assay type: in vivo, Plasmodium falciparum
Conditions: read-out: SMFA IC50 oocyst (transmission) intensity; 48 hours incubation; oocysts 8 days after feeding
Description: Compounds were diluted in DMSO and then in culture medium (RPMI 1640 supplemented with 367 μM hypoxanthine, 25 mM Hepes, 25 mM sodium bicarbonate, and 10% human type A serum) to achieve a final DMSO concentration of 0.1%. […] Eight days after feeding, oocyst intensity and prevalence were assessed by luminescence measurement of individual mosquitoes as described ([60]). All conditions were tested in duplicate, and for each replicate, a total of 24 mosquitoes were analyzed. […]
Endpoint: IC50 (nM)

Compound: CC(C)c1n[nH]c2c(=O)[nH]c(Cc3ccc(F)cc3F)nc12 [SAL-0010003]
Units Of Measure: nM
Result: 67

----------
Test system: P. falciparum Dd2-B2 lines selected under drug pressure
Test: 72-hour flow cytometry EC50 assay, lines selected under drug pressure
Assay type: cell-based, Plasmodium falciparum
Details: Plasmodium falciparum, DD2, read-out: EC50, line selected with SAL-0010003, Well A7
Endpoint: EC50 (nM)

Record Smiles: CC(C)c1n[nH]c2c(=O)[nH]c(Cc3ccc(F)cc3F)nc12
Endpoint: EC50
Result: 2800

----------
Measured EC50, listed per entry.
System: P. falciparum Dd2-B2 lines selected under drug pressure
Assay: 72-hour flow cytometry EC50 assay, lines selected under drug pressure
Format: cell-based, Plasmodium falciparum
Conditions: read-out: EC50, line selected with the same NPD compound, Well 3
Endpoint: EC50 (µM)

Compound: CC(C)c1n[nH]c2c(=O)[nH]c(C3CCCCC3)nc12 [NPD-3518]
Units Of Measure: µM
Result: 2.53

Compound: CC(C)c1n[nH]c2c(=O)[nH]c(Cc3ccccc3Cl)nc12 [NPD-2958]
Units Of Measure: µM
Result: 2.47

----------
Tested on: P. falciparum stage V gametocytes (male gamete formation)
Assay: Exflagellation (male gamete formation) inhibition assay
Format: cell-based, Plasmodium falciparum
Settings: 2 μM, 48 hours
Measured % inhibition of exflagellation at 2 μM, listed per entry.

Molecule: CCCCOc1ncc(Br)cc1-c1nc2c(C(C)C)n[nH]c2c(=O)[nH]1 [SAL-0010203]
% inhibition of exflagellation at 2 μM [%]: 76.7

Molecule: CC(C)COc1ccc(S(=O)(=O)N(C)C)cc1-c1nc2c(C(C)C)n[nH]c2c(=O)[nH]1 [SAL-0010243]
% inhibition of exflagellation at 2 μM [%]: 95.4

Molecule: CC(C)c1n[nH]c2c(=O)[nH]c(C3CCOc4ccc(F)cc43)nc12 (stereo not drawn) [SAL-0010007]
% inhibition of exflagellation at 2 μM [%]: 100

Molecule: CCc1c2nc(-c3cc(C(=O)NC(C)C)cnc3OCC(C)C)[nH]c(=O)c2nn1CCOC [SAL-0010255]
% inhibition of exflagellation at 2 μM [%]: 48.8

Molecule: CC(C)COc1ccc(S(=O)(=O)N(C)C)cc1-c1nc2c(C(C)(C)C)n[nH]c2c(=O)[nH]1 [SAL-0010284]
% inhibition of exflagellation at 2 μM [%]: 60.5

Molecule: CC(C)c1[nH]nc2c(=O)[nH]c(Cc3ccccc3F)nc12 [SAL-0010042]
% inhibition of exflagellation at 2 μM [%]: 95.4

Molecule: CCCCOc1ncc(Br)cc1-c1nc2c(CC)n(CCOC)nc2c(=O)[nH]1 [SAL-0010039]
% inhibition of exflagellation at 2 μM [%]: 0

Molecule: CC(C)COc1ccc(S(=O)(=O)N(C)C)cc1-c1nc2c(C3CCC3)n[nH]c2c(=O)[nH]1 [SAL-0010283]
% inhibition of exflagellation at 2 μM [%]: 72.1

Molecule: CCc1c2nc(-c3cc(-c4ccccc4)cnc3OCC(C)C)[nH]c(=O)c2nn1CCOC [SAL-0010028]
% inhibition of exflagellation at 2 μM [%]: 18.6

----------
Test system: P. falciparum clinical isolates from Porto Velho, Brazil
Test: Ex vivo schizont maturation assay, Brazilian clinical isolates
Assay type: cell-based, Plasmodium falciparum
Settings: Plasmodium falciparum, read-out: EC50 range, clinical isolates
Endpoint: EC50

Molecule: CCN(CC)CCCC(C)Nc1ccnc2cc(Cl)ccc12 (centres unmarked) [Chloroquine, reference compound]
Endpoint: EC50
Result: 0.626 to 2.6 µM

Molecule: C[C@H]1[C@H](OC(=O)CCC(=O)O)O[C@@H]2O[C@@]3(C)CC[C@H]4[C@H](C)CC[C@@H]1[C@@]24OO3 [Artesunate, reference compound]
Endpoint: EC50
Result: 0.0001 to 0.009 µM

----------
Tested on: P. falciparum (clone 3D7)
Assay: Parasite reduction ratio (PRR) assay
Type: cell-based, Plasmodium falciparum
Conditions: 10× EC50, 3D7
Output rule met for Log PRR not less than 3; output rule not met otherwise.

Compound: CCc1nc(N)nc(N)c1-c1ccc(Cl)cc1 [Pyrimethamine, reference compound]
Category Label: rule met
--
Compound: O=C1C(O)=C([C@H]2CC[C@H](c3ccc(Cl)cc3)CC2)C(=O)c2ccccc21 [Atovaquone, reference compound]
Category Label: rule not met
--
Compound: CC(C)c1n[nH]c2c(=O)[nH]c(Cc3ccc(F)cc3F)nc12 [SAL-0010003]
Category Label: rule met
--
Compound: C[C@H]1[C@H](OC(=O)CCC(=O)O)O[C@@H]2O[C@@]3(C)CC[C@H]4[C@H](C)CC[C@@H]1[C@@]24OO3 [Artesunate, reference compound]
Category Label: rule met
--
Compound: CNC(=O)c1cnc(OCC(C)C)c(-c2nc3c(C(C)C)n[nH]c3c(=O)[nH]2)c1 [SAL-0010301]
Category Label: rule not met
--
Compound: CCc1c2nc(-c3cc(C(=O)NC)cnc3OCC(C)C)[nH]c(=O)c2nn1CCOC [SAL-0010031]
Category Label: rule not met

----------
System: P. falciparum stage V gametocytes (male gamete formation)
Test: Exflagellation (male gamete formation) inhibition assay
Assay type: cell-based, Plasmodium falciparum
Conditions: Plasmodium falciparum; 48 hours exposure
Endpoint: IC50 (nM)

Record Smiles: CC(C)c1n[nH]c2c(=O)[nH]c(Cc3ccc(F)cc3F)nc12
Target Entity: P. falciparum stage V gametocytes (male gamete formation)
Endpoint: IC50
Result: 404

----------
Tested on: P. falciparum (clone 3D7)
Test: Parasite reduction ratio (PRR) assay
Format: cell-based, Plasmodium falciparum
Conditions: 10× EC50, 3D7 killing profile
Listed here are molecules together with their documented Slope.

Molecule: CCN(CC)CCCC(C)Nc1ccnc2cc(Cl)ccc12 (stereo not drawn) [Chloroquine, reference compound]
Slope: −0.0717
//
Molecule: CC(C)c1n[nH]c2c(=O)[nH]c(Cc3ccc(F)cc3F)nc12
Slope: −0.0647
//
Molecule: O=C1C(O)=C([C@H]2CC[C@H](c3ccc(Cl)cc3)CC2)C(=O)c2ccccc21 [Atovaquone, reference compound]
Slope: −0.0470
//
Molecule: CNC(=O)c1cnc(OCC(C)C)c(-c2nc3c(C(C)C)n[nH]c3c(=O)[nH]2)c1
Slope: −0.0532
//
Molecule: CCc1c2nc(-c3cc(C(=O)NC)cnc3OCC(C)C)[nH]c(=O)c2nn1CCOC
Slope: −0.0579
//
Molecule: CCc1nc(N)nc(N)c1-c1ccc(Cl)cc1 [Pyrimethamine, reference compound]
Slope: −0.0667
